# protocol_description: In vivo pharmacokinetic studies in rats, 1 hr intravenous infusion
# condition_parameters: male, Sprague-Dawley, rat, in vivo, iv, 100 mg/kg

compound | half-life / h
Cn1c(=O)ccc2ccc(F)c(CCNC[C@H]3CN(c4cnc5c(n4)NC(=O)CO5)C(=O)O3)c21 [Example 15] | 4.93

---

# system_tested: E. coli DNA gyrase (Escherichia coli, UniProt P0AES4+P0AES6)
# Sequence (P0AES4 whole entry, one chain of several): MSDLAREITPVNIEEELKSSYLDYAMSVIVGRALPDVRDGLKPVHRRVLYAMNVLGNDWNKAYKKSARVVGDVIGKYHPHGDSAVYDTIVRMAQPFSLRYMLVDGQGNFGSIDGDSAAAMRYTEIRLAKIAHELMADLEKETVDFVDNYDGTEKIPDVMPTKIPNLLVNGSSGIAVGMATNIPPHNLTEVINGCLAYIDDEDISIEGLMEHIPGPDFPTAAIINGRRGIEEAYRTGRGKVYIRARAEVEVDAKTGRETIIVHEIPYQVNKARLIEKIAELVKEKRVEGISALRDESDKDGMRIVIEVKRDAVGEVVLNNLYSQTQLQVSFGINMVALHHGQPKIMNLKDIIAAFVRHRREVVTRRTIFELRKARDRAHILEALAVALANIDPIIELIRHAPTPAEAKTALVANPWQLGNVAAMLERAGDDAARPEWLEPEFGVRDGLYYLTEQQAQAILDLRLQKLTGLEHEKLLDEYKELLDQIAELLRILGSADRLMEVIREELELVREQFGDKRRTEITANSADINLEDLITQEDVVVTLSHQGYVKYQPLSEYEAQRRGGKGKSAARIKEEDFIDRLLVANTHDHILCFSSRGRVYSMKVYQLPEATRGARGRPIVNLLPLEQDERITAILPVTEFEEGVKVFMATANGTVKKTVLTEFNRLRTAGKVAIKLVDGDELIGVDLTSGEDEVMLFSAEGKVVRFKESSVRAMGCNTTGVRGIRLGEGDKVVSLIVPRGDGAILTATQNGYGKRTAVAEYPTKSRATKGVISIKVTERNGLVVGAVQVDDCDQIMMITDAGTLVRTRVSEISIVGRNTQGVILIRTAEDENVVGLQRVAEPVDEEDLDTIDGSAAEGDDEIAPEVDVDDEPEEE
# protocol_description: biochemical
# condition_parameters: supercoiling assay
Parameter: IC50. Scope: all listed entries.
assay_readout: IC50

compound | result
Cn1c(=O)ccc2ccc(F)c(CCNC[C@@H]3CN(c4cnc5c(n4)NC(=O)CO5)C(=O)O3)c21 [Example 14] | 0.013 µM
Cn1c(=O)ccc2ccc(F)c(CCCNC[C@H]3CN(c4cnc5c(n4)NC(=O)CO5)C(=O)O3)c21 [Example 22] | 0.0032 µM
Cn1c(=O)ccc2ccc(F)c(CCNCC[C@H]3CN(c4cnc5c(n4)NC(=O)CO5)C(=O)O3)c21 (single isomer, unassigned) [Example 24] | 0.025 µM
Cn1c(=O)cc(CO)c2ccc(F)c(CCNC[C@H]3CN(c4ccc5c(n4)NC(=O)CO5)C(=O)O3)c21 [Example 12] | < 0.1 µM
O=C1COc2ncc(N3C[C@H](CNCCc4c(F)ccc5ccc(=O)n(CCO)c45)OC3=O)nc2N1 [Example 20] | 0.0106 µM
Cc1nc2ccc(F)c(CCNC[C@H]3CN(c4ccc5c(n4)NC(=O)CO5)C(=O)O3)c2n(C)c1=O [Example 6] | 0.0034 µM
O=C1COc2ccc(N3C[C@H](CNCCc4c(F)ccc5ncc(=O)n(CCO)c45)OC3=O)nc2N1 [Example 9] | 0.0032 µM
Cn1c(=O)ccc2ccc(F)c(C[C@H](O)CNC[C@H]3CN(c4ccc5c(n4)NC(=O)CO5)C(=O)O3)c21 (single isomer, unassigned) [Example 18] | 0.013 µM
Cn1c(=O)ccc2ccc(F)c(CCNC[C@H]3CN(c4ncc5c(n4)NC(=O)CO5)C(=O)O3)c21 [Example 16] | 0.041 µM
Cn1c(=O)ccc2ccc(F)c(CCCNC[C@@H]3CN(c4cnc5c(n4)NC(=O)CO5)C(=O)O3)c21 [Example 23] | 0.0049 µM
Cn1c(=O)ccc2ccc(F)c(CCNC[C@H]3CN(c4cnc5c(n4)NC(=O)CO5)C(=O)O3)c21 [Example 15] | 0.0046 µM
Cn1c(=O)cnc2ccc(F)c(CCNC[C@H]3CN(c4ccc5c(n4)NC(=O)CO5)C(=O)O3)c21 [Example 4] | 0.007 µM
Cn1c(=O)cc(CN)c2ccc(F)c(CCNC[C@H]3CN(c4ccc5c(n4)NC(=O)CO5)C(=O)O3)c21 [Example 13] | 0.02 µM
Cn1c(=O)ccc2ccc(F)c(CCNCC[C@@H]3CN(c4cnc5c(n4)NC(=O)CO5)C(=O)O3)c21 (single isomer, unassigned) [Example 25] | 0.017 µM
O=C1COc2ccc(N3C[C@H](CNCCc4c(F)ccc5ccc(=O)n(CCO)c45)OC3=O)nc2N1 [Example 10] | 0.0059 µM

The origin of these recorded values is patent US10912780B2.
